target: ERK2 (Homo sapiens, UniProt P28482)
Sequence (P28482 whole entry): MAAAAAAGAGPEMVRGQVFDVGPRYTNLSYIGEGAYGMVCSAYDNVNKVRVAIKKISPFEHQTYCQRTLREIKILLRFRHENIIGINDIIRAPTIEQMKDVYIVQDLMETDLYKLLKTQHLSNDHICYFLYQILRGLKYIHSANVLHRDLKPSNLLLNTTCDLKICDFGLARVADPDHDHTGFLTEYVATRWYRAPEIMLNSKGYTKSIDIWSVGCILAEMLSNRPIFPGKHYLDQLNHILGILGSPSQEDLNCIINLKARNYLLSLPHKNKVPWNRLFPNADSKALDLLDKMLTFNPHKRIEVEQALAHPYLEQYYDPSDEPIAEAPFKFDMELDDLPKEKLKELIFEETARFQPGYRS

| compound | Kd |
| --- | --- |
| CN(C)C(=O)c1cc(NC(=O)c2cc3c(-c4cnc5[nH]ccc5c4)cccc3s2)ccc1O [CDD-2728] | 534 nM |

----------
assay: Pharmacokinetics after oral administration in mice; format: in vivo; settings: mouse, 50 mg/kg, plasma

| molecular.string | result.units | CL/F |
| --- | --- | --- |
| CN(C)C(=O)c1cc(NC(=O)c2cc3c(-c4cnc5[nH]ccc5c4)cccc3s2)ccc1O | mL/min/kg | 650 |

----------
Molecular target: PHKG2 (Homo sapiens)
Sequence (P15735 1-406): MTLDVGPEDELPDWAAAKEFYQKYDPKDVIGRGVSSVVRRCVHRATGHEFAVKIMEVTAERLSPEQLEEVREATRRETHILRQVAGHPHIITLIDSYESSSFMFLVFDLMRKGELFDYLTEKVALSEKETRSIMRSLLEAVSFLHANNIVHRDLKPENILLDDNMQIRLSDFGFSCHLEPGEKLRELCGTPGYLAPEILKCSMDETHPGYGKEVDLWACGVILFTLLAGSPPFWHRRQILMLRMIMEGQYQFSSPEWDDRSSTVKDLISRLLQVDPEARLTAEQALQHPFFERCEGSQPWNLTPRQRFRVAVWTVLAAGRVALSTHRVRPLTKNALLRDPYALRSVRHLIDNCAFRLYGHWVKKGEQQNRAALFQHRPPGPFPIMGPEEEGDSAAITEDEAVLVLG

| molecular.string | system.under.test | Kd [nM] |
| --- | --- | --- |
| O=C(Nc1ccc(F)cc1)c1ccn2ncc(-c3cnc4[nH]ccc4c3)c2c1 | PHKG2 (Homo sapiens) | 1950 |

----------
assay: In vitro metabolism in human liver microsomes; details: human, microsomes
Recorded measurements of half-life, one per entry
measure: half-life (h)

| compound | result.units | experimental.value |
| --- | --- | --- |
| COc1ccc(NC(=O)c2cc3c(-c4cnc5[nH]ccc5c4)cccc3s2)cc1C(=O)N1CCCCC1 [CDD-2491] | h | 0.213 |
| CNCc1ccc(NC(=O)c2ccn3ncc(-c4cncc5ccccc45)c3c2)cc1 [CDD-2347] | h | 0.505 |
| O=C(c1cc2c(-c3cnc4[nH]ccc4c3)cccc2s1)N1CCN(c2ccccc2)C(=O)C1 [CDD-3116] | h | 0.8 |
| O=C(Nc1ccc2c(c1)C(=O)NC2)c1cc2c(-c3cnc4[nH]ccc4c3)cccc2s1 [CDD-3115] | h | 14.8 |
| CN(C)CCNC(=O)c1cc(NC(=O)c2cc3c(-c4cnc5[nH]ccc5c4)cccc3s2)ccc1O [CDD-3086] | h | 1.68 |
| O=C(Nc1ccc(O)c(C(=O)N2CCCCC2)c1)c1cc2c(-c3cnc4[nH]ccc4c3)cccc2s1 [CDD-2634] | h | 1.36 |
| CCN(CC)Cc1cc(NC(=O)c2cc3c(-c4cnc5[nH]ccc5c4)cccc3s2)ccc1O [CDD-3117] | h | 0.517 |
| COc1ccc(NC(=O)c2cc3c(-c4cnc5[nH]cc(C)c5c4)cccc3s2)cc1C(=O)N(C)C [CDD-2731] | h | 1.92 |

----------
molecular target: CLK3 (Homo sapiens, UniProt P49761)
Sequence (P49761 whole entry): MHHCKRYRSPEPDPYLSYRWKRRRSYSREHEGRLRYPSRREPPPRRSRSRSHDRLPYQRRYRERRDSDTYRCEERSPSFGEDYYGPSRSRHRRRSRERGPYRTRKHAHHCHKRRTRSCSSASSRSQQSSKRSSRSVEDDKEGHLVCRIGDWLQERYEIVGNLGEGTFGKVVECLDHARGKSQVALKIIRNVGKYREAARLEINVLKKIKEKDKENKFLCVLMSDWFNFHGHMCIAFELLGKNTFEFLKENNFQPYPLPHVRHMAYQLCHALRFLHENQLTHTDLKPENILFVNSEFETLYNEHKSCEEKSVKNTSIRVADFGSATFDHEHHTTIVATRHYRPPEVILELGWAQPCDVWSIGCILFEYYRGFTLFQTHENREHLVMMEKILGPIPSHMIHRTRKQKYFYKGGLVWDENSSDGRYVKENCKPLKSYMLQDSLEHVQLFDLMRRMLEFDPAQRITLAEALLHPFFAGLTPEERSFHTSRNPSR

| compound | Kd [nM] |
| --- | --- |
| CN(C)C(=O)c1cc(NC(=O)c2cc3c(-c4cnc5[nH]ccc5c4)cccc3s2)ccc1O [CDD-2728] | 1020 |

----------
biological target: JNK1 (Homo sapiens, UniProt P45983); experiment: Promega NanoBRET intracellular target engagement (tracer K10 displacement), JNK1; assay type: cell-based
Sequence (P45983 whole entry): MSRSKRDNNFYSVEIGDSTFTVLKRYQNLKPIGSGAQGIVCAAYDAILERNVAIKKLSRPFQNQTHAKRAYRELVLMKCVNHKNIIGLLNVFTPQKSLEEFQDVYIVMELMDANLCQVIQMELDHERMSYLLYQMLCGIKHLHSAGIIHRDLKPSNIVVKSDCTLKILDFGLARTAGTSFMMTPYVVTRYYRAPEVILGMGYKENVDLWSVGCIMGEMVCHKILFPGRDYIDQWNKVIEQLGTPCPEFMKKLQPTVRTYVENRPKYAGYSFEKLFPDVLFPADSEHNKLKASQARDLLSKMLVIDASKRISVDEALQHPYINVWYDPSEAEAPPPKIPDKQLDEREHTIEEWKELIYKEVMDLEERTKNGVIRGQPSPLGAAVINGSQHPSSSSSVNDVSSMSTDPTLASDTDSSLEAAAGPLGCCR
pIC50: −log10 of the molar value.
measure: pIC50

| molecular.string | experimental.value |
| --- | --- |
| Cc1c[nH]c2ncc(-c3cccc4sc(C(=O)Nc5ccc(O)c(C(=O)N(C)C)c5)cc34)cc12 | 6.60 |
| Cc1ccc(NC(=O)c2cc3c(-c4cnc5[nH]ccc5c4)cccc3s2)cc1C(=O)N(C)C | 6.00 |
| CNCc1ccc(NC(=O)c2ccc3ncc(-c4cnc5[nH]ccc5c4)n3c2)cc1 | 4.18 |
| COc1ccc(NC(=O)c2cc3c(-c4cnc5[nH]ccc5c4)cccc3s2)cc1C(=O)N1CCOCC1 | 6.73 |
| CNCc1ccc(NC(=O)c2ccn3ncc(-c4cncc5ccccc45)c3c2)cc1 | 5.66 |

----------
target: Other MAPK; assay: Eurofins KdSelect, other MAPK; type: binding; conditions: Table 2; IC50 nM; read-out: Other MAPK, based on Kd select results

| molecule | system.under.test | Kd |
| --- | --- | --- |
| N#CC(c1ccnc(OCc2ccc(CN3CCOCC3)cc2)n1)c1nc2ccccc2s1 (centres unmarked) [CDD-939, bentamapimod] | Other MAPK | > 1000 nM |
| O[C@H]1CC[C@H](Nc2ncc3nc(Nc4c(F)cc(F)cc4F)n([C@H]4CCOC4)c3n2)CC1 [CDD-985, tanzisertib] | Other MAPK | > 1000 nM |

----------
biological target: CSNK1G1 (Homo sapiens, UniProt Q9HCP0); construct: purchased ThermoFisher (SelectScreen); test: ThermoFisher SelectScreen, CSNK1G1; type: binding; conditions: Table 5
Sequence (Q9HCP0 whole entry): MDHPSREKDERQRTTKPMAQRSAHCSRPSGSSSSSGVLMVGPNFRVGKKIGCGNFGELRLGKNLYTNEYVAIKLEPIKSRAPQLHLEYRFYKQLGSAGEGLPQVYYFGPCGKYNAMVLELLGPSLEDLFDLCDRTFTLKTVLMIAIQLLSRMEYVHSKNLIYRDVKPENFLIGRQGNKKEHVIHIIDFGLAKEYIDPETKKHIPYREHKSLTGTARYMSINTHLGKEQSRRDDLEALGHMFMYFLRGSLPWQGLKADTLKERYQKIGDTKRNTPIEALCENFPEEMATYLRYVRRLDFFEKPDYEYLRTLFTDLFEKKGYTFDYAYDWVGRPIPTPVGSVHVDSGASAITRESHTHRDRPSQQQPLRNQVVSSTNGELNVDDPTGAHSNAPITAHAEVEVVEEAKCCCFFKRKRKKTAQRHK
pKd: −log10 of the molar value.

| molecular.string | system.under.test | pKd |
| --- | --- | --- |
| CN(C)C(=O)c1cc(NC(=O)c2cc3c(-c4cnc5[nH]ccc5c4)cccc3s2)ccc1O | CSNK1G1 (Homo sapiens, UniProt Q9HCP0) | 5.36 |

----------
Target protein (sequence): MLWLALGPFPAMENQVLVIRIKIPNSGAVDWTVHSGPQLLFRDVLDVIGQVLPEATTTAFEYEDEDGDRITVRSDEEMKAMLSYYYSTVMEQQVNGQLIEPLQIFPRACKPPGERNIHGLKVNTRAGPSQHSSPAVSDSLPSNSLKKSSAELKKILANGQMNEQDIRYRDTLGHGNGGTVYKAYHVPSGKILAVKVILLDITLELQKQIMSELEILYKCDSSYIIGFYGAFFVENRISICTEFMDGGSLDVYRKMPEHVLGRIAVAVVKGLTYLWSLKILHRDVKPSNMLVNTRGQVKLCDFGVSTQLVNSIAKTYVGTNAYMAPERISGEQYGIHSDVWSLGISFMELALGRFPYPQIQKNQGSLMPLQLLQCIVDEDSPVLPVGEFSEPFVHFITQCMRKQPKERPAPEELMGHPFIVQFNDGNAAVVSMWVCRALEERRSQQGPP
pKd: −log10 of the molar value.
pKd reference

| molecular.string | pKd |
| --- | --- |
| CN(C)Cc1ccc(NC(=O)c2ccn3ncc(-c4cnc5[nH]ccc5c4)c3c2)cc1 | 6.26 |
| O=C(Nc1ccc(F)cc1)c1ccn2ncc(-c3cnc4[nH]ccc4c3)c2c1 | 5.39 |

----------
Assay: Pharmacokinetics after oral administration in mice
Format: in vivo
Conditions: mouse, 50 mg/kg, plasma
Text: Based on stability and estimated half-life of compounds exposed to liver microsome in vitro, CDD-2728 was selected for PK evaluation.

| molecular.string | Tmax, min |
| --- | --- |
| CN(C)C(=O)c1cc(NC(=O)c2cc3c(-c4cnc5[nH]ccc5c4)cccc3s2)ccc1O | 37.8 |

----------
target: JNK1 (Homo sapiens); experiment: JNK1 kinase (intrinsic ATPase, Kinase-Glo) assay; format: biochemical
Recorded measurements of log10 of Kd, one per entry
measure: log10 of Kd (log10 of the value in nM)

| molecular.string | log10 of Kd |
| --- | --- |
| CNCc1ccc(NC(=O)c2ccn3ncc(-c4cnc5[nH]ccc5c4)c3c2)cc1 | -0.64 |
| O=C(Nc1ccc(O)c(C(=O)NCC2CC2)c1)c1cc2c(-c3cnc4[nH]ccc4c3)cccc2s1 | 1.02 |
| CNC(=O)c1cc(NC(=O)c2cc3c(-c4cnc5[nH]ccc5c4)cccc3s2)ccc1O | 0.29 |
| O=C(Nc1ccccc1)c1ccn2ncc(-c3cnc4[nH]ccc4c3)c2c1 | -0.92 |
| O=C(Nc1ccc(O)c(C(=O)N2CCC2)c1)c1cc2c(-c3cnc4[nH]ccc4c3)cccc2s1 | -0.24 |
| COc1ccc(NC(=O)c2cc3c(-c4cnc5[nH]ccc5c4)cccc3s2)cc1C(=O)N(C)C | 0.26 |
| CN(C)CCNC(=O)c1cc(NC(=O)c2cc3c(-c4cnc5[nH]ccc5c4)cccc3s2)ccc1O | -0.17 |
| CN(C)C(=O)c1cc(NC(=O)c2cc3c(-c4cnc5[nH]ccc5c4)cccc3s2)ccc1F | -0.24 |
| COc1ccc(NC(=O)c2cc3c(-c4cnc5[nH]ccc5c4)cccc3s2)cc1C(=O)N1CCCCC1 | -0.55 |
| CN(C)C(=O)c1cc(NC(=O)c2cc3c(-c4cnc5[nH]ccc5c4)cccc3s2)ccc1O | -0.62 |
| Cc1ccc(NC(=O)c2cc3c(-c4cnc5[nH]ccc5c4)cccc3s2)cc1C(=O)N(C)C | 0.08 |
| CN(C)C(=O)c1cc(NC(=O)c2cc3c(-c4cnc5[nH]ccc5c4)cccc3s2)ccn1 | -0.28 |
| CN(C)C(=O)c1cc(NC(=O)c2cc3c(-c4cnc5[nH]ccc5c4)cncc3s2)ccc1O | -1.15 |
| CN(C)C(=O)c1cc(O)cc(NC(=O)c2cc3c(-c4cnc5[nH]ccc5c4)cccc3s2)c1 | -0.55 |
| O=C(Nc1ccc(O)c(C(=O)NC2COC2)c1)c1cc2c(-c3cnc4[nH]ccc4c3)cccc2s1 | 0.45 |
| CN(C)C(=O)c1cc(NC(=O)c2ccc3ncc(-c4cnc5[nH]ccc5c4)n3c2)ccc1O | -0.19 |
